Measured IC50, listed per entry for reference.
- ASSAYED TARGET: hIL-17A (Homo sapiens, UniProt Q16552)
- Sequence (Q16552 20-155 limits assumed): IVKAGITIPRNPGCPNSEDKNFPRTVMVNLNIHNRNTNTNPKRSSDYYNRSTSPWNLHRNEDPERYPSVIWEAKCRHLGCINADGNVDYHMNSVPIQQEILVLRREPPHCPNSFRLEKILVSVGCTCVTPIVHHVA
- ASSAY SUMMARY: Inhibition of hIL-17A-induced chemokine GROα/CXCL1 production in HT-29 cell
ASSAY METRIC: IC50 (nM)

[[record]]
molecule = "Cc1nonc1C(=O)N[C@H](C(=O)Nc1ccc(-c2c(C)n[nH]c2C)cc1)C1c2cc(F)c(F)cc2OCC12CC2 (stereo partly shown) [Compound 42]"
assayed_target = "hIL-17A (Homo sapiens, UniProt Q16552)"
obs_value = 70

[[record]]
molecule = "Cc1n[nH]c(C)c1-c1ccc(NC(=O)[C@@H](NC(=O)c2nonc2C2CC2)C2c3ccc(F)cc3OCC23CC3)cn1 (stereo partly shown) [Compound 95]"
assayed_target = "hIL-17A (Homo sapiens, UniProt Q16552)"
obs_value = 457

[[record]]
molecule = "Cc1n[nH]c(C)c1-c1ccc(NC(=O)[C@@H](NC(=O)OC2CC2)C2c3cc(F)c(F)cc3OCC23CC3)cn1 (stereo partly shown) [Compound 105]"
assayed_target = "hIL-17A (Homo sapiens, UniProt Q16552)"
obs_value = 943

[[record]]
molecule = "CCc1nonc1C(=O)N[C@H](C(=O)Nc1ccc(-c2c(C)n[nH]c2C)c(F)c1)C1c2ccc(F)cc2OCC12CC2 (stereo partly shown) [Compound 38]"
assayed_target = "hIL-17A (Homo sapiens, UniProt Q16552)"
obs_value = 506

[[record]]
molecule = "Cc1n[nH]c(C)c1-c1ncc(NC(=O)[C@@H](NC(=O)c2conc2C2CC2)C2c3cc(F)c(F)cc3OCC23CC3)cc1F (stereo partly shown) [Compound 96]"
assayed_target = "hIL-17A (Homo sapiens, UniProt Q16552)"
obs_value = 134

[[record]]
molecule = "Cc1n[nH]c(C)c1-c1ccc(NC(=O)[C@@H](NC(=O)c2ccnn2C(C)C)C2c3cc(F)cc(F)c3OCC23CC3)cc1 (stereo partly shown) [Compound 70]"
assayed_target = "hIL-17A (Homo sapiens, UniProt Q16552)"
obs_value = 112

[[record]]
molecule = "Cc1n[nH]c(C)c1-c1ccc(NC(=O)[C@@H](NC(=O)c2ccnn2C)C2c3ccccc3CC23CC3)cc1 (stereo partly shown) [Compound 1]"
assayed_target = "hIL-17A (Homo sapiens, UniProt Q16552)"
obs_value = 404

[[record]]
molecule = "Cc1n[nH]c(C)c1-c1ccc(NC(=O)[C@@H](NC(=O)c2ccnn2C)C2c3ccccc3OCC23CC3)cc1 (stereo partly shown) [Compound 3]"
assayed_target = "hIL-17A (Homo sapiens, UniProt Q16552)"
obs_value = 213

[[record]]
molecule = "Cc1nonc1C(=O)N[C@H](C(=O)Nc1ccc(-c2c(C)n[nH]c2C)cc1)C1c2ccc(F)cc2CC12CC2 (stereo partly shown) [Compound 15]"
assayed_target = "hIL-17A (Homo sapiens, UniProt Q16552)"
obs_value = 71

[[record]]
molecule = "Cc1n[nH]c(C)c1-c1ccc(NC(=O)[C@@H](NC(=O)c2nocc2C(C)C)C2c3ccc(F)cc3OCC23CC3)cc1 (stereo partly shown) [Compound 35]"
assayed_target = "hIL-17A (Homo sapiens, UniProt Q16552)"
obs_value = 85

[[record]]
molecule = "Cc1n[nH]c(C)c1-c1ncc(NC(=O)[C@@H](NC(=O)c2nonc2C2CC2)C2c3ccc(F)c(F)c3OCC23CC3)cc1F (stereo partly shown) [Compound 86]"
assayed_target = "hIL-17A (Homo sapiens, UniProt Q16552)"
obs_value = 718

[[record]]
molecule = "Cc1nonc1C(=O)N[C@H](C(=O)Nc1ccc(-c2c(C)n[nH]c2C)cc1)C1c2ccc(F)cc2OCC12CC2 (stereo partly shown) [Compound 24]"
assayed_target = "hIL-17A (Homo sapiens, UniProt Q16552)"
obs_value = 30

[[record]]
molecule = "Cc1n[nH]c(C)c1-c1ccc(NC(=O)[C@@H](NC(=O)c2ccnn2C(C)C)C2c3cc(F)c(F)cc3OCC23CC3)cc1 (stereo partly shown) [Compound 48]"
assayed_target = "hIL-17A (Homo sapiens, UniProt Q16552)"
obs_value = 184

